Tested on: OVCAR-8 ovarian
Assay Summary: NCI-60 one-dose screen, 48 h
Details: 10 µM unless noted
Compounds without any hit were thinned out: in the full panel of roughly 83,000, 20% have a hit. The source made the active and inactive calls. How the source made its calls: active means growth percent below 10; inactive means the rest.
Tick one outcome: True for active, False for inactive

Worked cases, answers included:
- Compound: "Cc1nc2sc(C(=O)Nc3cccc(Br)c3)c(N)c2cc1C(O)c1ccccc1 (stereo unspecified)"
  Group: "False"
- Compound: "CC1(C)COB(OCC(C)(C)COB2OCC(C)(C)CO2)OC1"
  Group: "False"
- Compound: "CN(C)CC(C)(C)C(=O)/C=C/c1ccccc1"
  Group: "True"
- Compound: "COc1cc2ncnc(Nc3ccc(F)c(Cl)c3)c2cc1OCC(=O)N1CCN(c2ccccc2)CC1"
  Group: "False"
- Compound: "COc1ccc2c(c1)c(-c1nc(-c3c[nH]c4ccncc34)cs1)cn2C"
  Group: "True"

Status in this test for NC(N)=NCCCCCNc1noc(Cc2c[nH]c3cc(Br)ccc23)n1 ? False

Status in this test for O=C(Nc1cccc(-c2ccc(N3CCOCC3)nn2)c1)Nc1cccc(C(F)(F)F)c1 ? False

Status in this test for c1ccc(Cn2cc3c(c2)-c2oncc2CC3)cc1 ? False

Status in this test for NC(=O)c1cc(I)ccc1NC(=O)/C=C/c1ccccc1 ? False

Status in this test for Cc1ccc(Nc2cc(N)nc(N)n2)cc1Cl ? False

Status in this test for COc1ccc2c(c1)N(CCO)C1=C(C(=O)OC1)C2c1cccc(F)c1 (stereo unspecified) ? False

====

System: U251 CNS
Assay Summary: NCI-60 one-dose screen, 48 h (100 = growth as untreated, 0 = no growth, -100 = all killed)
Details: 10 µM unless noted
This is part of a sample that, as a whole, favours compounds with a hit. Of some 83,000 tested, about 20% had one in any assay.
Please enter class 1 where growth is greater than or equal to 70%, and class 0 where it is lower.

Worked cases, answers included:
- Compound: "CC1=C([Se]CC(OC(=O)CC[Se]c2ccccc2)C(=O)NC(C)(C)C)C(=O)c2ccccc2C1=O (stereo unspecified)"
  Group: "class 0"
- Compound: "COc1ccc(-c2noc(C(=O)O)c2-c2cc(OC)c(OC)c(OC)c2)cc1"
  Group: "class 0"
- Compound: "Cc1ccc(C(=O)c2ccc(CC(=O)N/N=C/c3ccccc3O)n2C)cc1"
  Group: "class 1"
- Compound: "CCC(C)N(CCNc1cc(OC)cc2cccnc12)CC(C)C (stereo unspecified)"
  Group: "class 1"
- Compound: "CN(/C(N)=N/N=C/c1c2ccccc2cc2ccccc12)C1CCCCC1"
  Group: "class 0"
- Compound: "Cc1cn(-c2cc(NC(=O)c3cncc(C#Cc4cnc(N)c5ncccc45)c3)cc(C(F)(F)F)c2)cn1"
  Group: "class 1"

Is growth for C=C1C(=O)O[C@H]2[C@H]1CC/C(COC(=O)NCc1ccc(Cn3c(=O)sn(CCCCC)c3=O)cc1)=C\CC[C@@]1(C)O[C@@H]21 at or above 70%? class 0

====

System: SW-620 colon
Assay Summary: NCI-60 one-dose screen, 48 h
Details: 10 µM unless noted
This is part of a sample that, as a whole, favours compounds with a hit. Of some 83,000 tested, about 20% had one in any assay. The source made the active and inactive calls. How the source made its calls: active means growth percent below 10; inactive means the rest.
Tick one outcome: t for active, f for inactive

Worked cases, answers included:
- Molecule: "C[PH+](c1nc2ccccc2nc1[PH+](C)C(C)(C)C)C(C)(C)C.C[PH+](c1nc2ccccc2nc1[PH+](C)C(C)(C)C)C(C)(C)C.[Au+].[Cl-] (stereo unspecified)"
  Group: "t"
- Molecule: "COC(=O)[C@@H](CCCCNC(=O)[C@]12CCC(C)(C)C[C@@H]1C1=CC[C@@H]3[C@@]4(C)C/C(=C/c5ccco5)C(=O)C(C)(C)[C@@H]4CC[C@@]3(C)[C@]1(C)CC2)NC(=O)[C@]12CCC(C)(C)C[C@@H]1C1=CC[C@@H]3[C@@]4(C)C/C(=C/c5ccco5)C(=O)C(C)(C)[C@@H]4CC[C@@]3(C)[C@]1(C)CC2"
  Group: "f"
- Molecule: "COc1cc(C2CC(c3ccc(Nc4nc(Nc5ccc(Cl)cc5)nc(Nc5ccc(Cl)cc5)n4)cc3)=NN2C(C)=O)cc(OC)c1OC (stereo unspecified)"
  Group: "f"
- Molecule: "NC(=O)c1ccc(-c2c3ccccc3cc3c2ccc2ccccc23)cc1"
  Group: "f"
- Molecule: "O=C(CSc1nc2ccc([N+](=O)[O-])cc2[nH]1)Nc1ccc([N+](=O)[O-])cc1"
  Group: "f"

Now look at this entry.
Status in this test for C#COc1cccc(Nc2c(C#N)cnc3ncc(NC(=O)CCl)cc23)c1 ? t

====

System: HS 578T breast
Assay Summary: NCI-60 one-dose screen, 48 h (100 = growth as untreated, 0 = no growth, -100 = all killed)
Details: 10 µM unless noted
Method: Growth inhibition of the HS 578T human tumor cell line is measured as a screen for anti-cancer activity. Cells are grown in 96 well plates and exposed to the test compound for 48 hours. Compounds are tested at a single concentration, which is 10^-5 M for most compounds. The reported endpoint is percent growth (GI% or GIPRCNT), where numbers from 0 - 100% represent growth inhibition, and numbers from -100% - 0 represent cell death. For example, a value of 40 represents 60% growth inhibition. […]
The panel holds about 83,000 compounds, 20% with a hit somewhere; the sample as a whole holds those more often.
Please enter y where growth is greater than or equal to 80%, and n where it is lower.

- Compound String: "CNC(=O)c1[nH]cc(-c2ccc(OC)cc2)c1-c1cc(OC)c2c(c1OC)OCO2"
  Assayed System: "HS 578T breast"
  Group: "y"
- Compound String: "COc1ccc(C2=C(Br)C(=O)c3nc(C)ccc3C2=O)cc1"
  Assayed System: "HS 578T breast"
  Group: "y"
- Compound String: "Nc1nc2ccccc2c2c(=O)c3cccc(Cl)c3sc12"
  Assayed System: "HS 578T breast"
  Group: "y"
- Compound String: "Cc1cccc(/C=C/c2c(C(=O)/C=C/c3ccccc3)c(C)nc3ccccc23)c1"
  Assayed System: "HS 578T breast"
  Group: "n"
- Compound String: "COC(=O)/C=C1/SC(=Nc2cccc(OC)c2)N(CCc2c[nH]c3ccc(O)cc23)C1=O"
  Assayed System: "HS 578T breast"
  Group: "n"

Is growth for O=C1Nc2ccccc2/C1=C/c1cccn1CCCCn1c2ccccc2c(=O)c2ccccc21 at or above 80%? y

Is growth for O=C(NNC(=O)c1ccc(NC(=O)c2ccccn2)cc1)Nc1ccc([N+](=O)[O-])cc1 at or above 80%? n

Is growth for O=C(Nn1c2c(sc1=NC1CC1)C(=O)c1ccccc1C2=O)c1cc2ccc1CCc1ccc(cc1)CC2 at or above 80%? n

====

Tested on: SNB-19 CNS
Assay Summary: NCI-60 one-dose screen, 48 h (100 = growth as untreated, 0 = no growth, -100 = all killed)
Details: 10 µM unless noted
Description: Growth inhibition of the SNB-19 human tumor cell line is measured as a screen for anti-cancer activity. Cells are grown in 96 well plates and exposed to the test compound for 48 hours. Compounds are tested at a single concentration, which is 10^-5 M for most compounds. The reported endpoint is percent growth (GI% or GIPRCNT), where numbers from 0 - 100% represent growth inhibition, and numbers from -100% - 0 represent cell death. For example, a value of 40 represents 60% growth inhibition. […]
Compounds without any hit were thinned out: in the full panel of roughly 83,000, 20% have a hit.
Attribute Measured: growth (%)
Give bare numbers, in %.

// worked examples, growth included
- Compound: "O=C1/C(=C/c2cccc(F)c2)CN(C(=O)C(Cl)Cl)C/C1=C\\c1cccc(F)c1"
  growth (%): -88.2
- Compound: "O=C(CSc1nc2sc3c(c2c(=O)n1-c1ccccc1)CCCCC3)N/N=C/c1cccc([N+](=O)[O-])c1"
  growth (%): 83.6
- Compound: "Nc1ncnc2c1C(c1ccc(Br)cc1)c1sc3c(F)cccc3c1O2 (stereo not given)"
  growth (%): 110
- Compound: "COc1ccc(C/C(C)=C(\\c2ccc(Cl)cc2)c2ccc(OCCN3CCCCC3)cc2)cc1"
  growth (%): 93.5
- Compound: "Cc1sc2nc(NCCc3c[nH]c4ccc(Cl)cc34)[nH]c(=O)c2c1C"
  growth (%): 63.8

Go through the list and state growth for each entry.
1. O=[N+]([O-])c1cccc(-c2nc3cc4nc5ccccc5[nH]c4cc3n2)c1
2. CCSc1nc2scc(C)c2c(=O)[nH]1
3. CN(C)Cc1ccc(O)c(C(=O)O)c1
4. CCCCn1c(=O)[nH]c(N)c([C@@H]2c3c([nH]c(=O)n(CCCC)c3=O)Oc3ccc4ccccc4c32)c1=O
5. CCOc1ccc(NC(=O)CSc2oc(-c3ccccc3)nc2S(=O)(=O)c2ccc(C)cc2)cc1

1: 102; 2: 96.5; 3: 109; 4: 64.2; 5: 70.7
